testedSystem: CDK12 (aa686-1082)/Cyclin K complex (Homo sapiens)
Construct: CDK12 (aa686-1082)/Cyclin K complex
protocolText: CDK12 inhibition assay (Caliper/LabChip EZ Reader kinase assay)
Format: biochemical
details: Table 1; CDK12 (aa686-1082)/Cyclin K 50 nM, ATP 2 mM, 3 hr at 27° C.
Description: Compounds of the invention were assayed for inhibition of CDK7, CDK9, CDK12, and CDK2 activity at Biortus Biosciences (Jiangyin, Jiangsu Province, P.R. of China) using kinase assays for each CDK developed with a Caliper/LabChip EZ Reader (Perkin Elmer, Waltham, MA). […]
pIC50: −log10 of the molar value.
propertyName: pIC50

Solved cases below.
- compoundStructureString: "CC(C)N1CCC[C@H](Nc2ncc(Cl)c(-c3c[nH]c4ccccc34)n2)C1"
  testedSystem: "CDK12 (aa686-1082)/Cyclin K complex (Homo sapiens)"
  measuredResult: "5.30 to 6.70"
- compoundStructureString: "FC(F)(F)c1cnc(N[C@H]2CNC[C@@H](c3nnc4ccccn34)C2)nc1-c1c[nH]c2ccccc12"
  testedSystem: "CDK12 (aa686-1082)/Cyclin K complex (Homo sapiens)"
  measuredResult: "5.30 to 6.70"
- compoundStructureString: "CCc1cnc(N[C@H]2CCCNC2)nc1-c1n[nH]c2ncccc12"
  testedSystem: "CDK12 (aa686-1082)/Cyclin K complex (Homo sapiens)"
  measuredResult: "5.30 to 6.70"

INPUT: Check the records and state pIC50 for `OCc1cncc(-c2ccc3c(-c4nc(N[C@H]5CCCNC5)ncc4C(F)(F)F)c[nH]c3c2)c1`
OUTPUT: 5.30 to 6.70

INPUT: Check the records and state pIC50 for `N#Cc1ccc2c(-c3nc(N[C@H]4CCCNC4)ncc3C(F)(F)F)c[nH]c2c1-c1ccnnc1`
OUTPUT: 5.30 to 6.70

INPUT: Check the records and state pIC50 for `CCC(=O)N[C@H]1CNC[C@@H](Nc2ncc(C(F)(F)F)c(-c3c[nH]c4c(S(C)(=O)=O)cccc34)n2)C1`
OUTPUT: < 5.30

----------
testedSystem: CDK2/Cyclin E1 complex (Homo sapiens, UniProt P24941)
protocolText: CDK2 inhibition assay (Caliper/LabChip EZ Reader kinase assay)
Type: biochemical
details: Table 1; CDK2/Cyclin E1 0.5 nM, ATP 2 mM, 35 min at 27° C.
pIC50: −log10 of the molar value.
Measured pIC50 of individual entries

Solved cases below.
- compound: "FC(F)(F)Sc1cnc(NC2CCCNC2)nc1-c1c[nH]c2ccccc12 (stereo not shown)"
  measuredResult: "5.30 to 6.70"
- compound: "COc1cnc(N[C@H]2CCCNC2)nc1-c1c[nH]c2ccccc12"
  measuredResult: "< 5.30"
- compound: "Cc1nc(-c2ccc3c(-c4nc(N[C@H]5CCCNC5)ncc4C(F)(F)F)c[nH]c3c2)nn1C"
  measuredResult: "5.30 to 6.70"
- compound: "CC(C)(O)Cn1cc(-c2ccc3c(-c4nc(N[C@H]5CCCNC5)ncc4C(F)(F)F)c[nH]c3c2)cn1"
  measuredResult: "5.30 to 6.70"
- compound: "CC(C)CN1CCC[C@H](Nc2ncc(Cl)c(-c3c[nH]c4ccccc34)n2)C1"
  measuredResult: "< 5.30"
- compound: "CC(O)c1cnc(NC2CCCNC2)nc1-c1c[nH]c2ccccc12 (single isomer, unassigned) [Compound 238]"
  measuredResult: "< 5.30"
- compound: "O=S1(=O)CCN(c2cccc3c(-c4nc(N[C@H]5CCCNC5)ncc4Cl)c[nH]c23)CC1"
  measuredResult: "5.30 to 6.70"
- compound: "N#Cc1ccc2c(-c3nc(N[C@@H]4CNC[C@H](O)C4)ncc3C(F)(F)F)c[nH]c2c1"
  measuredResult: "< 5.30"
- compound: "O=C(c1ccc2c(-c3nc(N[C@H]4CCCNC4)ncc3C(F)(F)F)c[nH]c2c1)N1C[C@@H](O)C(F)(F)C1"
  measuredResult: "5.30 to 6.70"
- compound: "FC(F)(F)c1cnc(N[C@H]2CCCNC2)nc1-c1c[nH]c2cc(-c3ncc[nH]3)ccc12"
  measuredResult: "5.30 to 6.70"

INPUT: Check the records and state pIC50 for `FC(F)(F)c1cnc(N[C@H]2CCCNC2)nc1-c1c[nH]c2cc(-c3ccc4c(c3)OCCO4)ccc12`
OUTPUT: < 5.30

INPUT: Check the records and state pIC50 for `N#Cc1ccc2c(-c3nc(N[C@H]4CCCNC4)ncc3OC(F)F)c[nH]c2c1`
OUTPUT: < 5.30

INPUT: Check the records and state pIC50 for `N#Cc1ccc2c(-c3nc(N[C@@H]4CNCC[C@H]4F)ncc3C(F)(F)F)c[nH]c2c1`
OUTPUT: 5.30 to 6.70

INPUT: Check the records and state pIC50 for CC[C@]1(O)CCN(C(=O)c2ccc3c(-c4nc(N[C@H]5CCCNC5)ncc4C(F)(F)F)c[nH]c3c2)C1 (single isomer, unassigned)
OUTPUT: < 5.30

INPUT: Check the records and state pIC50 for `O=S1(=O)CCn2cc(-c3nc(N[C@H]4CCCNC4)ncc3C(F)(F)F)c3cccc1c32`
OUTPUT: < 5.30

INPUT: Check the records and state pIC50 for `FC(F)(F)c1cnc(N[C@H]2CCCNC2)nc1-c1c[nH]c2cc(-c3cnccn3)ccc12`
OUTPUT: 5.30 to 6.70

INPUT: Check the records and state pIC50 for `CCN1CCC[C@H](Nc2ncc(C(F)(F)F)c(-c3c[nH]c4cc(S(C)(=O)=O)ccc34)n2)C1`
OUTPUT: 5.30 to 6.70

INPUT: Check the records and state pIC50 for `FC(F)(F)c1cnc(N[C@H]2CCCNC2)nc1-c1c[nH]c2cc(-n3ccnc3)ccc12`
OUTPUT: 5.30 to 6.70

INPUT: Check the records and state pIC50 for `CCc1cnc(N[C@H]2CCCNC2)nc1-c1c[nH]c2cc(C#N)ccc12`
OUTPUT: < 5.30

INPUT: Check the records and state pIC50 for `CS(=O)(=O)c1c(C#N)ccc2c(-c3nc(N[C@H]4CCCNC4)ncc3C(F)(F)F)c[nH]c12`
OUTPUT: 5.30 to 6.70

INPUT: Check the records and state pIC50 for `O=C(c1ccc2c(-c3nc(N[C@H]4CCCNC4)ncc3C(F)(F)F)c[nH]c2c1)N1C[C@H](O)C(F)(F)C1`
OUTPUT: 5.30 to 6.70

INPUT: Check the records and state pIC50 for CC1(O)CCC(c2cccc3c(-c4nc(N[C@H]5CCCNC5)ncc4C(F)(F)F)c[nH]c23)CC1 (single isomer, unassigned) [Compound 192]
OUTPUT: 5.30 to 6.70

----------
testedSystem: CDK12 (aa686-1082)/Cyclin K complex (Homo sapiens, UniProt Q9NYV4)
Construct: CDK12 (aa686-1082)/Cyclin K complex
Sequence (Q9NYV4 686-1082, species assumed): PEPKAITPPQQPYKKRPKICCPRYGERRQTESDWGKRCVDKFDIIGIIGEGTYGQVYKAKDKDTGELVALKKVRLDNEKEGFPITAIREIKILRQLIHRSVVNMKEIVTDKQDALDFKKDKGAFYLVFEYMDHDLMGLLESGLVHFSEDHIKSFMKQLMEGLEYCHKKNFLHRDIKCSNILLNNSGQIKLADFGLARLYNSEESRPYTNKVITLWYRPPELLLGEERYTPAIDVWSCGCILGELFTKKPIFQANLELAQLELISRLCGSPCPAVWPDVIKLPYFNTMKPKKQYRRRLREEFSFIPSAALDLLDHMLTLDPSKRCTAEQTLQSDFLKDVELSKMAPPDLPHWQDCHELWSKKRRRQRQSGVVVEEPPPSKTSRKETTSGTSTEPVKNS
Sequence (O75909 whole entry partner, species assumed, the tested form may be a part): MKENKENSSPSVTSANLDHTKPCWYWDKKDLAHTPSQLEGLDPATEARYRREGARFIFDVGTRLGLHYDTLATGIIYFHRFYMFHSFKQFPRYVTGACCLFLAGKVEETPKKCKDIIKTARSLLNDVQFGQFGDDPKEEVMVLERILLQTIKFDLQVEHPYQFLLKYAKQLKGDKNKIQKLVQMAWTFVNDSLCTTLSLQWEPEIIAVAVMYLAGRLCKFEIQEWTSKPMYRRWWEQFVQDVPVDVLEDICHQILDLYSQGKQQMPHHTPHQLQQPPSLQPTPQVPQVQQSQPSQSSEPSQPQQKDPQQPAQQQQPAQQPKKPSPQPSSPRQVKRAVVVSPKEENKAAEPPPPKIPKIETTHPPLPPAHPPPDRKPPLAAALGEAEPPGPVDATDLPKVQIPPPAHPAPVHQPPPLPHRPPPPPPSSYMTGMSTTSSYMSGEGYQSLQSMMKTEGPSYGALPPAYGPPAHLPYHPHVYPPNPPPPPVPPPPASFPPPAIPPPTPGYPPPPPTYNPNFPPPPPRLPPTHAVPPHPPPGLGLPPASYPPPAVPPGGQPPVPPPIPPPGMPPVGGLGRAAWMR
protocolText: CDK12 inhibition assay (Caliper/LabChip EZ Reader kinase assay)
Format: biochemical
details: Table 1; CDK12 (aa686-1082)/Cyclin K 50 nM, ATP 2 mM, 3 hr at 27° C.
pIC50: −log10 of the molar value.
propertyName: pIC50

Solved cases below.
- molecule: "FC(F)(F)c1cnc(N[C@H]2CCCNC2)nc1-c1c[nH]c2cc(-c3ccncc3)ccc12 [Compound 224]"
  measuredResult: "5.30 to 6.70"
- molecule: "FC(F)(F)c1cnc(N[C@H]2CCCNC2)nc1-c1c[nH]c2c(-c3ccncc3)cccc12 [Compound 162]"
  measuredResult: "5.30 to 6.70"
- molecule: "N#Cc1ccc2c(-c3nc(N[C@@H]4CNC[C@@H](F)C4)ncc3C(F)(F)F)c[nH]c2c1 [Compound 368]"
  measuredResult: "5.30 to 6.70"
- molecule: "FC(F)(F)c1cnc(NC2CNCc3ccccc32)nc1-c1c[nH]c2ccccc12 (stereo not drawn) [Compound 216]"
  measuredResult: "< 5.30"
- molecule: "CC1(O)CCN(C(=O)c2ccc3c(-c4nc(N[C@H]5CCCNC5)ncc4C(F)(F)F)c[nH]c3c2)C1 (single isomer, unassigned) [Compound 221]"
  measuredResult: "< 5.30"
- molecule: "Cn1cc(-c2cccc3c(-c4nc(N[C@H]5CCCNC5)ncc4C(F)(F)F)c[nH]c23)cn1 [Compound 164]"
  measuredResult: "5.30 to 6.70"

INPUT: Check the records and state pIC50 for CS(=O)(=O)c1c(C#N)ccc2c(-c3nc(N[C@H]4CCCNC4)ncc3C(F)(F)F)c[nH]c12 [Compound 232]
OUTPUT: 5.30 to 6.70

INPUT: Check the records and state pIC50 for CC[C@H]1CC[C@H](Nc2ncc(C(F)(F)F)c(-c3c[nH]c4ccccc34)n2)CN1 [Compound 217]
OUTPUT: 5.30 to 6.70

INPUT: Check the records and state pIC50 for FC(F)(F)c1cnc(N[C@H]2CCCNC2)nc1-c1c[nH]c2cc(-c3cccc(Oc4ccccc4)c3)ccc12 [Compound 341]
OUTPUT: < 5.30
